Listed here are molecules together with their documented 20 S ratio (const:immuno).
system: chymotryptic-like activity of isolated 20S constitutive proteasome vs immunoproteasome; test: Enzyme kinetic assay with isolated 20S proteasome preps, EC50 ratio of CT-L activity (20S ratio); format: biochemical; details: constitutive proteasome to immunoproteasome, >1 = prefers immunoproteasome

# example entries with known answers
[
  {
    "molecule": "CC(C)C[C@H](NC(=O)CN1CCOCC1)C(=O)N[C@@H](Cc1ccccc1)C(=O)N[C@@H](CC(C)C)C(=O)C1(C)CO1 (stereo partly shown)",
    "assay_target": "chymotryptic-like activity of isolated 20S constitutive proteasome vs immunoproteasome",
    "experimental_value": "<0.5"
  },
  {
    "molecule": "CC(C)C[C@@H](NC(=O)OCc1ccccc1)C(=O)N[C@@H](Cc1c[nH]c2ccccc12)C(=O)N[C@@H](Cc1ccccc1)C(=O)C1(C)CO1 (stereo partly shown)",
    "assay_target": "chymotryptic-like activity of isolated 20S constitutive proteasome vs immunoproteasome",
    "experimental_value": ">5.0"
  },
  {
    "molecule": "C[C@H](NC(=O)OCc1ccccc1)C(=O)N[C@@H](Cc1cn(C)c2ccccc12)C(=O)N[C@@H](Cc1ccccc1)C(=O)C1(C)CO1 (stereo partly shown)",
    "assay_target": "chymotryptic-like activity of isolated 20S constitutive proteasome vs immunoproteasome",
    "experimental_value": ">1.0"
  },
  {
    "molecule": "C[C@H](NC(=O)OCc1ccccc1)C(=O)N[C@@H](Cc1c[nH]c2ccccc12)C(=O)N[C@@H](Cc1ccccc1)C(=O)C1(C)CO1 (stereo partly shown)",
    "assay_target": "chymotryptic-like activity of isolated 20S constitutive proteasome vs immunoproteasome",
    "experimental_value": ">1.0"
  },
  {
    "molecule": "CC(C)C[C@H](NC(=O)OCc1ccccc1)C(=O)N[C@@H](Cc1ccccc1)C(=O)N[C@@H](CC(C)C)C(=O)C1(C)CO1 (stereo partly shown)",
    "assay_target": "chymotryptic-like activity of isolated 20S constitutive proteasome vs immunoproteasome",
    "experimental_value": "<0.5"
  }
]

Request the reported 20 S ratio (const:immuno) associated with CC(C)CC(NC(=O)OCc1ccccc1)C(=O)N[C@@H](CC(C)C)C(=O)N[C@@H](Cc1ccccc1)C(=O)C1(C)CO1 (stereo partly shown)
<0.5

Field request: 20 S ratio (const:immuno) | item: CC(C)C(NC(=O)OCc1ccccc1)C(=O)N[C@@H](Cc1ccccc1)C(=O)N[C@@H](Cc1ccccc1)C(=O)C1(C)CO1 (stereo partly shown)
>5.0

Recorded 20 S ratio (const:immuno) of CC(NC(=O)OCc1ccccc1)C(=O)N[C@@H](Cc1c[nH]c2ccccc12)C(=O)N[C@@H](Cc1ccc(O)cc1)C(=O)C1(C)CO1 (stereo partly shown) , please.
>3.0

Given C[C@H](NC(=O)OCc1ccccc1)C(=O)N[C@@H](Cc1ccc(C#N)cc1)C(=O)N[C@@H](Cc1ccccc1)C(=O)C1(C)CO1 (stereo partly shown) , state its recorded 20 S ratio (const:immuno).
>1.0

Entry CC(C)C[C@H](NC(=O)[C@H](Cc1ccccc1)NC(=O)C(C)NC(=O)OCc1ccccc1)C(=O)C1(C)CO1 (stereo partly shown) : reported 20 S ratio (const:immuno) = ?
<0.5

Requested read-out: 20 S ratio (const:immuno). Entry: CC[C@H](C)C(NC(=O)OCc1ccccc1)C(=O)N[C@@H](Cc1c[nH]c2ccccc12)C(=O)N[C@@H](Cc1ccccc1)C(=O)C1(C)CO1 (stereo partly shown)
>5.0
